Target: recombinant PIM-1 (Homo sapiens, UniProt P11309)
Sequence (P11309 whole entry): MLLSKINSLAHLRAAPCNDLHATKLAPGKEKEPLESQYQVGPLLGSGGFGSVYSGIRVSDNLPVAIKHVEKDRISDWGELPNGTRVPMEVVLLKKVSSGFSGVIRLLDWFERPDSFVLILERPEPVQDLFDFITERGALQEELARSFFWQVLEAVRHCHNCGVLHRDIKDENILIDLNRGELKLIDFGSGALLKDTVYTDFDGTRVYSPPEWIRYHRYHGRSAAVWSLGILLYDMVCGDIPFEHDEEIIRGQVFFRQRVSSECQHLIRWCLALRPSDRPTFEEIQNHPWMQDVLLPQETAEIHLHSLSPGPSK
Experiment: PIM-1 kinase assay (radiometric, 15 uM ATP, DMSO 4%)
Format: biochemical
Settings: Table 1; % inhibition at the high dose (2 micromolar) in a single screening assay; 15 μM ATP
Classification field: T = inhibition at 2 µM at or over 20%; F = inhibition at 2 µM under 20%.

Problem: Item CN1CCCC(NC(=O)c2ccccc2-c2ccc(/C=C3/C(=O)Nc4ccccc43)o2)C1 (centres unmarked) with inhibition at 2 µM of 20% or above?
Result: F

Problem: Item O=C1Nc2ccccc2/C1=C\c1ccc(-c2cc(C(=O)NCCN3CCCC3)ccc2F)o1 with inhibition at 2 µM of 20% or above?
Result: T

Problem: Item CN1CCCCC1CNC(=O)c1cc(-c2ccc(/C=C3/C(=O)Nc4ccc(F)cc43)o2)ccc1Cl (centres unmarked) with inhibition at 2 µM of 20% or above?
Result: F

Problem: Item CN1CCCC(NC(=O)c2cccc(-c3coc(/C=C4/C(=O)Nc5ccc(F)cc54)c3)c2)C1 (centres unmarked) with inhibition at 2 µM of 20% or above?
Result: F

Problem: Item O=C1Nc2ccccc2/C1=C\c1ccc(-c2ccc(C(=O)O)c(O)c2)o1 with inhibition at 2 µM of 20% or above?
Result: T

Problem: Item O=C1Nc2ccccc2/C1=C\c1ccc(-c2ccc(Cl)c(C(=O)NCCC3CCCN3)c2)o1 (centres unmarked) with inhibition at 2 µM of 20% or above?
Result: F

Problem: Item CN(C)C1CCN(C(=O)c2ccc(-c3ccc(/C=C4/C(=O)Nc5ccc(F)cc54)o3)cc2)CC1 with inhibition at 2 µM of 20% or above?
Result: T

Problem: Item CN(C)c1ccc(CNC(=O)c2cccc(-c3ccc(/C=C4/C(=O)Nc5ccc(Cl)cc54)o3)c2)cc1 with inhibition at 2 µM of 20% or above?
Result: F

Problem: Item COCCNC(=O)c1ccc2c(c1)/C(=C\c1ccc(-c3cccc(C(=O)NCCN4CCCC4)c3)o1)C(=O)N2 with inhibition at 2 µM of 20% or above?
Result: T

Problem: Item O=C1Nc2ccccc2/C1=C\c1ccc(-c2cc(F)cc(C(=O)NCCN3CCCC3)c2)o1 with inhibition at 2 µM of 20% or above?
Result: T

Problem: Item O=C1Nc2ccc(F)cc2/C1=C\c1ccc(-c2ccccc2C(=O)NCCN2CCCC2)o1 with inhibition at 2 µM of 20% or above?
Result: F

Problem: Item O=C1Nc2ccc(Cl)cc2/C1=C\c1ccc(-c2cccc(C(=O)NCCc3ccccn3)c2)o1 with inhibition at 2 µM of 20% or above?
Result: T

Problem: Item O=C1Nc2ccc(Cl)cc2/C1=C\c1ccc(-c2cccc(C(=O)NCCc3ccc(O)cc3)c2)o1 with inhibition at 2 µM of 20% or above?
Result: F

Problem: Item O=C1Nc2ccc(C(=O)O)cc2/C1=C\c1ccc(-c2cccc(C(=O)NCCN3CCCC3)c2)o1 with inhibition at 2 µM of 20% or above?
Result: T

Problem: Item CN1CCC(NC(=O)c2cc(-c3ccc(/C=C4/C(=O)Nc5ccccc54)o3)ccc2Cl)CC1 with inhibition at 2 µM of 20% or above?
Result: F
